Assay: Serum stability in RPMI1640 medium containing 10% fetal bovine serum
Type: in vitro ADME
Conditions: bovine, 4 hr, read-out: Relative Percent Remaining at 4 hr
result-type: remaining at 4 h, 10 μM (%)
Express the result in % but write the number alone.

Req: Looking for the measured remaining at 4 h, 10 μM of CC[C@H](C)[C@H](NC(=O)[C@H](Cc1ccc(O)cc1)NC(=O)OCc1ccccc1)C(=O)N[C@@H](Cc1ccc(O)cc1)C(=O)NCC(=O)N[C@@H](CO)C(=O)N[C@@H](Cc1ccccc1)C(=O)N[C@@H](CCCCN)C(=O)NCCOCCOCCOCCNC(=O)[C@@]1(O)[C@H](O)[C@]2(CC)C=CCN3CC[C@@]4(c5cc([C@@]6(C(=O)OC)C[C@@H]7CN(CCc8c6[nH]c6ccccc86)C[C@](O)(CC)C7)c(OC)cc5N(C)[C@@H]14)[C@@H]32 , can you help?
Resp: 88
